molecular target: Monoamine transporters; Norepininephrine & dopamine (Rattus norvegicus) (UniProt P23977+Q9WTR4); assay: Ratio of IC50 value against NE to that of DA transporters; type: protein assay
Note to self: Ratio under 300 means satisfied, ties and anything higher get not satisfied.

Record excerpt, results attached:
Please let me know if CN1C2CCC1C(C(=O)OCc1ccccc1)C(OC(=O)c1ccccc1)C2 (stereo not given) shows Ratio below 300.
satisfied

Record Cc1ccc(C2CC3CCC(C2C(=O)OC2CC2)N3C)cc1 (stereo not given) : is its Ratio strictly below 300?
not satisfied

Hello, I'm reviewing records and need to know if Ratio of Cc1ccc(C2CC3CCC(C2C(=O)OC2CCCC2)N3C)cc1 (stereo not given) is below 300. Could you check?
satisfied

***
Please check: Ratio for CC(C)OC(=O)C1C(c2ccc(Cl)cc2)CC2CCC1N2C (stereo not given) , strictly under 300 or not?
not satisfied

Is it true that Ratio reported for CCOC(=O)C1C(OC(=O)c2ccccc2)CC2CCC1N2C (stereo not given) is less than 300?
satisfied

Say whether its Ratio is strictly beneath 300. Entry: Cc1ccc(C2CC3CCC(C2C(=O)Oc2cccc(C)c2)N3C)cc1 (stereo not given)
satisfied

Is it true that Ratio reported for Cc1ccc(C2CC3CCC(C2C(=O)OC2CCC2)N3C)cc1 (stereo not given) is less than 300?
not satisfied

Answer whether the compound CCCOC(=O)C1C(OC(=O)c2ccccc2)CC2CCC1N2C (stereo not given) has Ratio strictly less than 300
satisfied

Strictly below 300 in Ratio? CC(C)OC(=O)C1C(c2ccc(I)cc2)CC2CCC1N2C (stereo not given)
not satisfied

Report whether reported Ratio is lower than 300 (strictly) for CC(C)OC(=O)C1C(c2ccccc2)CC2CCC1N2C (stereo not given)
not satisfied

====

target: Norepinephrine transporter (Rattus norvegicus, UniProt Q9WTR4)
Sequence (Q9WTR4 whole entry): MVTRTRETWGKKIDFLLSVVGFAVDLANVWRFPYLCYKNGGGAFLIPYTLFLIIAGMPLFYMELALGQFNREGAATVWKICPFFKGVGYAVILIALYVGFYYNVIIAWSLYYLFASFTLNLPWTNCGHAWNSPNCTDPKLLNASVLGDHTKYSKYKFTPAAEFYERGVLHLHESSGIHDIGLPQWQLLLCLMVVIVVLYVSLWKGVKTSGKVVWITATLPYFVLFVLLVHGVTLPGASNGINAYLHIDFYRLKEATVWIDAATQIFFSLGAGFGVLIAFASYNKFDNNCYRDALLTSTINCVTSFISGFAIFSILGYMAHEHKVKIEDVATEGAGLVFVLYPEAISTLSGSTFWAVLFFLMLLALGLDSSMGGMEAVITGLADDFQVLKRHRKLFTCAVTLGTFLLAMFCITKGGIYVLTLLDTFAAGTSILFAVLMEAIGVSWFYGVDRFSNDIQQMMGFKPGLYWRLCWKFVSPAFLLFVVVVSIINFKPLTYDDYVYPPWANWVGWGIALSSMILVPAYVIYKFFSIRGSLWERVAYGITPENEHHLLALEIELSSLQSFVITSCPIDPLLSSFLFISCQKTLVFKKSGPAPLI
measure name: IC50
Write the numeric value and follow it with the unit.

GET /values?item= Cc1ccc(OC(=O)C2C(c3ccc(Cl)cc3)CC3CCC2N3C)cc1 (configuration not stated) &system= Norepinephrine transporter (Rattus norvegicus, UniProt Q9WTR4) returns IC50: 1.28 µM

The value of IC50 recorded for CN(C)C(=O)C1C(c2ccc(Cl)cc2)CC2CCC1N2C (configuration not stated) when tested on Norepinephrine transporter (Rattus norvegicus, UniProt Q9WTR4) reads 0.942 µM

Assay Norepinephrine transporter (Rattus norvegicus, UniProt Q9WTR4), sample COC(=O)C1C(c2ccc(N)c(I)c2)CC2CCC1N2C (configuration not stated) , IC50 read: 1.33 µM

Measured IC50 (Norepinephrine transporter (Rattus norvegicus, UniProt Q9WTR4)), entry Cc1ccc(C2CC3CCC(C2C(=O)OC2CCC2)N3C)cc1 (configuration not stated) : 4.74 µM

With Norepinephrine transporter (Rattus norvegicus, UniProt Q9WTR4) as the test system, CN1C2CCC1C(C(=O)OC1CC1)C(c1ccc(I)cc1)C2 (configuration not stated) showed IC50 of 0.102 µM

====

target: UniProt:P23977
Lab note: cut-off is 5 nM. Strictly less in IC50 is Fulfilled. Exactly 5 nM or more is Not fulfilled.

In the record for CN1C2CCC1C(C(=O)Oc1ccccc1)C(c1ccccc1)C2 (stereo unspecified) , is IC50 less than 5 nM?
Not fulfilled

Could you please tell me whether IC50 recorded for Cc1ccc(C2CC3CCC(C2C(=O)Oc2ccccc2)N3C)cc1 (stereo unspecified) is less than 5 nM?
Fulfilled

Dear colleague, could you confirm whether IC50 of CN1C2CCC1C(C(=O)OCCCc1ccccc1)C(OC(=O)c1ccccc1)C2 (stereo unspecified) falls below 5 nM? Thanks.
Not fulfilled

I wonder whether CN(C)C(=O)C1C(c2ccc(Cl)cc2)CC2CCC1N2C (stereo unspecified) has IC50 below 5 nM. Can you tell?
Fulfilled

Threshold test, IC50 < 5 nM: CON(C)C(=O)C1C(OC(=O)c2ccccc2)CC2CCC1N2C (stereo unspecified)
Not fulfilled

Here's an entry: CC(C)OC(=O)C1C(c2ccc(Cl)cc2)CC2CCC1N2C (stereo unspecified) . Is its IC50 below 5 nM?
Fulfilled

API: query returns whether the compound falls strictly under 5 nM in IC50. Query: Cc1ccc(C2CC3CCC(C2C(=O)Oc2ccc(Cl)cc2)N3C)cc1 (stereo unspecified)
Not fulfilled

Is 5 nM strictly greater than the compound's reported IC50? compound: CN1C2CCC1C(C(=O)Oc1ccc(I)cc1)C(c1ccc(Cl)cc1)C2 (stereo unspecified)
Not fulfilled

Others:
Say whether its IC50 is strictly beneath 5 nM. Entry: COC(=O)C1C(c2ccc(Cl)c(C)c2)CC2CCC1N2C (stereo unspecified)
Fulfilled

Find out if reported IC50 for "CN1[C@H]2CC[C@@H]1[C@@H](C(=O)N1CCCC1)[C@@H](c1ccc(Cl)cc1)C2" is less than 5 nM
Fulfilled

Please state whether IC50 is below 5 nM for Cc1cccc(OC(=O)C2C(c3ccc(Cl)cc3)CC3CCC2N3C)c1 (stereo unspecified)
Not fulfilled

For this compound, is IC50 lower than 5 nM? COc1ccc(OC(=O)C2C(c3ccc(C)cc3)CC3CCC2N3C)cc1 (stereo unspecified)
Not fulfilled

Data origin: ChEMBL document CHEMBL1128444
